Reported apparent KD of MS2 coat protein values are given for each entry in this list.
test system: MS2 coat protein; assay: apparent KD of MS2 coat protein; designed switch direction (-1 OFF switch, 1 ON switch): -1; higher = weaker reporter binding; details: Eterna round: R95; input ligand: none
Write it as a number; the unit µM goes unstated.

Per the record, UCUAAACAUGAGGAUCACCCAUGUGAGGAUAUGAUGCAGCAGUGGUCUACGCUGUGCAUCAGAAGGCGCAUGUG (puzzle: Exclusion 1) has apparent KD of MS2 coat protein of 0.0804

// sample GAGAAUUCAUAGGAUAUCGUAUGGAUAAUUUAACGAGAAGGAUGAACAUGAGGAUCACCCAUGUGGUAUCAUGG [salish99_ex6_r3_002] (puzzle: Exclusion 6) , its apparent KD of MS2 coat protein was 0.095

The sequence identified as GAGGCAUGCCGAGGUCCACACAUGAGGAUCACCCAUGUAAUGACAGGCUUUUUACUCGUUUUACCGCUAUCGCGUUC [Gedied] (puzzle: Sensor v3, turn-off variant 1) registered its apparent KD of MS2 coat protein at 0.0127

Consider AAGAGGUCAGGAUAUUGGGCGGAAAGGGAAAGGAAAGGGCCCAAGAAGGGACAUGAGGAUCACCCAUGUAAGAA [Excls4-I] (puzzle: Exclusion 4) . Its measured apparent KD of MS2 coat protein is 0.0354

Memo: CCGGAAAGGGAGGAUAUAGGAGUCGAUAGACACCUAGAAGGUCUGACAUGAGGAUCACCCAUGUGUCCUACCGG [Fiskers Ex 6 - 90] (puzzle: Exclusion 6) , reported apparent KD of MS2 coat protein: 0.0198

Summary for this sequence, AGUACUAACACGAUAGUGUUAGUACAAUAAGCUUGUGUUACAUGAGGAUCACCCAUGUCCUCAUAAGCUCGUCUUAU [Mat - Sensor v3 - Turn-off var 2 - D54] (puzzle: Sensor v3, turn-off variant 2) : apparent KD of MS2 coat protein is 0.129

response.value for AUGAGGAUAAGAAAGUGAAGAUAGAGCGUACCUUAUGGAACAUGAGGAUCACCCAUGUAGCUUUUUGCUCGUCUUAU [JR_SV3TOV2_Sub031] (puzzle: Sensor v3, turn-off variant 2) (field: apparent KD of MS2 coat protein) = 0.0147

apparent KD of MS2 coat protein recorded for this sequence, CUGGACCGAGGAUAUAUUAUGUGAAACAUGAGGAUCACCCAUGUAAUAUGAUGGAUGUAAAUAGAAGGCGGUCUAG [Mat - Exclusion 5 - JL mod - D28] (puzzle: Exclusion 5) , is 0.0473

Measured apparent KD of MS2 coat protein of AGAGUACAUGAGGAUCACCCAUGUCAGGAUAUGCAGAAGAAGAAGAAGAGAAGAGAGAGCAGAAGGGACAAGAG [Ex 1 M2] (puzzle: Exclusion 1) : 0.0294

get_value(item= GGUGCUGGCGCGUCGGUGUUGGUGCAAUAAGCUUGUGAAACAUGAGGAUCACCCAUGUCCUCGUGGGCUCGUCUUGU [salish99_TOv2_r2_090] (puzzle: Sensor v3, turn-off variant 2) , readout=apparent KD of MS2 coat protein) returns 0.434

----------
Here, each record is paired with measured apparent KD of MS2 coat protein data.
test system: MS2 coat protein; assay: apparent KD of MS2 coat protein; designed switch direction (-1 OFF switch, 1 ON switch): 1; higher = weaker reporter binding; conditions: input ligand: microRNA oligo, concentration not stated
Give the number; nM is assumed, so skip it.

[
  {
    "macromolecule.sequence": "GGUAUCGACGCAGGAUAUGCUAUCCUUUGGGUAGCAGAAGGGUGAACAUGAGGAUCACCCAUGUGGGUGCCAGGGCGUGAGCCC [JL SSNG1 1.82] (Eterna round: R96, puzzle: Same State NG 1)",
    "target.desc": "MS2 coat protein",
    "units": "nM",
    "measured.result": 18.2
  },
  {
    "macromolecule.sequence": "UGAGCCGGCACUGAGGAUAUUCAUAUUAAAACAUGAGGAUCACCCAUGUAGGCCAGAAGGCCUUGGGAGAAGGCAGGUCGGCUCA [Mat - Same State 2 - Mod of UCT - D62] (Eterna round: R96, puzzle: Same State 2)",
    "target.desc": "MS2 coat protein",
    "units": "nM",
    "measured.result": 190
  },
  {
    "macromolecule.sequence": "UAAGUCAUGUAAGGAUAUGCAGCCGAAACGGCUGCAGAAGGUACUAUAAUUACAUGAGGAUCACCCAUGUUAUAAAAUUUAUAU [Mat - Same State NG 1 - JL mod - D77] (Eterna round: R96, puzzle: Same State NG 1)",
    "target.desc": "MS2 coat protein",
    "units": "nM",
    "measured.result": 39
  }
]

# value of apparent KD of MS2 coat protein, MS2 coat protein, item GCCGCGUUUCGCGCCUACAUGAGGAUCACCCAUGUUUGUAGGCAGGAUAUCGUUUGCUUUGCGGGCGAGAAGGGCUGUUGUGGC [salish99_SSNG3_R04_017] (Eterna round: R96, puzzle: Same State NG 3) = 28.9

I looked up AAAAAACAUGAGGAUCACCCAUGUCAAAAGACGUGAGGAUAUGUACAGACUUCGGUCUGUACAGAAGGCACGAAAA [SS1 - 1037] (Eterna round: R96, puzzle: Same State 1) and its apparent KD of MS2 coat protein for MS2 coat protein was 19.1

Observed apparent KD of MS2 coat protein, MS2 coat protein, AUUAUUAAUGCAGGAUAUGAUUAACAUGAGGAUCACCCAUGUGGUGUUGUGAGUAAGGAGAGUGAUCAGAAGGGCAUUUUUUCU [JMF's solution 17] (Eterna round: R96, puzzle: Same State NG 2) : 442

Summary: AACAUGAGGAUCACCCAUGUCAGGCCGCCGGCCUACAUGAGGAAGGAUAUAGCCUCGAAAAUUGGCUAGAAGGUCCUCAUGAAU [Letemaar] (Eterna round: R96, puzzle: Same State NG 3) , MS2 coat protein, apparent KD of MS2 coat protein = 4.24

Let me check: GCGGAACAUGAGGAUCACCCAUGUGGAGGGUGUAAAGGAUAUUAUAGAGAGAAGGUAGGGUAAGAAGGUUGCUGGG [JR_SS1_Sub090] (Eterna round: R96, puzzle: Same State 1) , system MS2 coat protein, measured apparent KD of MS2 coat protein is 582

So the reported apparent KD of MS2 coat protein for GCUAGGAAUAAAGCCAACAUGAGGAUCACCCAUGUAUGUUGGUAGGAUAUCGUUUGCAAAGCAAACGAGAAGGGCUAACCUAGC [Mat - Same State NG 3 - JL Mod - D68] (Eterna round: R96, puzzle: Same State NG 3) , on MS2 coat protein, turned out to be 62.7

Reading of apparent KD of MS2 coat protein for AACCGGGAGAAGCAGGAUAUUGCCUCUUCAACAUGAGGAUCACCCAUGUAAGUAAAUUGACGAUACAAGAAGGGCUGCUCCUUAC [Raatgees] (Eterna round: R96, puzzle: Same State 2) with MS2 coat protein: 79.1

Tested system MS2 coat protein; apparent KD of MS2 coat protein recorded for GGCCUCUGUCAAGGAUAUGCUACCGUUUCGGUAGCAGAAGGUGAUCACAUGCGGUUCGCCCAUGUUUAGGCCAACAGGCCCGCC (Eterna round: R96, puzzle: Same State NG 1) was 5.14
